TARGET OR TEST SYSTEM: Serotonin (5-HT) receptor (Rattus norvegicus) (UniProt P35563+P35365+P32305+P31388+Q9JJ16+P28564+P30994+Q62758+P08909+P14842+P30940+P35364+P19327+P28565)
ASSAY COMMENT: Evaluated for receptor mediated feedback inhibition of 5-HTP formation in striatum tissue of rat brain when administered subcutaneously
Assay type: functional, tissue-based
EXPERIMENTAL ENDPOINT: ED50

Take a look at these entries with their results.
- COMPOUND: "CCCN(CCC)C1CC1c1ccccc1O (stereo in doubt; 8)"
  ED50: "0.36 µmol/kg"
- COMPOUND: "CN(C)C1CC1c1cccc(O)c1 (configuration not stated)"
  ED50: "8.59 µmol/kg"
- COMPOUND: "CCCN(CCC)C1CC1c1cccc(OC)c1 (configuration not stated)"
  ED50: "1.17 µmol/kg"
- COMPOUND: "CCCN(CCC)C1CC1c1ccc(O)cc1 (configuration not stated)"
  ED50: "> 50 µmol/kg"
- COMPOUND: "CCCN(CCC)[C@@H]1CCc2cccc(O)c2C1"
  ED50: "0.065 µmol/kg"

What measured ED50 goes with CCCCN(CCCC)C1CC1c1ccccc1O (configuration not stated) ?
> 50 µmol/kg

What measured ED50 goes with CCCN(CCC)C1CC1c1ccccc1O (single isomer, unassigned; (+)) ?
14.5 µmol/kg

What measured ED50 goes with CCCN(CCC)C1CC1c1cccc(O)c1 (stereo in doubt; (+)-18) ?
> 50 µmol/kg

What measured ED50 goes with CCCCN(CCCC)C1CC1c1cccc(O)c1 (configuration not stated) ?
> 50 µmol/kg

What measured ED50 goes with CCCN(CCC)C1CC1c1cccc(O)c1 (single isomer, unassigned; (-)) ?
0.28 µmol/kg

What measured ED50 goes with CCN(CC)C1CC1c1ccccc1O (configuration not stated) ?
1.2 µmol/kg

What measured ED50 goes with CN(C)C1CC1c1ccccc1O (configuration not stated) ?
3.45 µmol/kg
